Molecular target: Human PD-L1/PD-1 (Homo sapiens)
Construct: made in house; host or cells: HEK293T
Sequence (Q9NZQ7 with tags, fused parts or gaps): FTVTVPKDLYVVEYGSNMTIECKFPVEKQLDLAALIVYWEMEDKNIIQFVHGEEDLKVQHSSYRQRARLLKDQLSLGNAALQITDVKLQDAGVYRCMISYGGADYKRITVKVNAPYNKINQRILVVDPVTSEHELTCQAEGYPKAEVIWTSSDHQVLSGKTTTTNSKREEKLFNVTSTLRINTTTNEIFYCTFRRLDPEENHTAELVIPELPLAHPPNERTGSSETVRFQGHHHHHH
Experiment: HTRF PD-1-Ig/PD-L1-His binding assay (human PD-L1)
Conditions: cluster symbol; read-out: HTRF IC50 cluster
Text: The ability of the macrocyclic peptides of the present disclosure to bind to PD-L1 was investigated using a PD-1/PD-L1 Homogenous Time-Resolved Fluorescence (HTRF) binding assay. Homogenous Time-Resolved Fluorescence (HTRF) Assays of Binding of Soluble PD-1 to Soluble PD-L1. […]
pIC50: −log10 of the molar value. Positions of bridges follow the written chain, without caps; N, C: chain ends. Non-standard residues stand in square brackets, D forms with d. Residues, ends and D or L forms follow the SMILES beside them. NMeNle = CCCC[C@H](NC)C(=O)O; NMeA = CN[C@@H](C)C(=O)O; Dab = NCC[C@H](N)C(=O)O; Dap = NC[C@H](N)C(=O)O
quantity.name: pIC50

If you can, please state the reported pIC50 value of CCCC[C@H]1C(=O)N(C)[C@@H](CCCC)C(=O)N[C@@H](CC(C)C)C(=O)N[C@H](C(=O)NCC(N)=O)CSCC(=O)N[C@@H](Cc2ccc(O)cc2)C(=O)N(C)[C@@H](C)C(=O)N[C@@H](CC(N)=O)C(=O)N2CCC[C@H]2C(=O)N[C@@H](CN)C(=O)N[C@@H](CC(C)C)C(=O)N2CCC[C@H]2C(=O)N[C@@H](Cc2c[nH]c3ccccc23)C(=O)N[C@@H](CCN)C(=O)N[C@@H](Cc2c[nH]c3ccccc23)C(=O)N1C [Example 6040] ({CH2CO}-Y[NMeA]NP[Dap]LPW[Dab]W[NMeNle][NMeNle]LCG-NH2; thioether N-14) .
8.17 to 9.41
